Data provenance: the supplement of paper PMC10567573

Would you mind telling me the reported protein stability index of each entry?
B1: ALKBH7 (parent)
chain: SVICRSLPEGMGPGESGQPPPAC

variants of: B1; assay: protein stability index of a GFP-peptide fusion (GPS, HEK-293T) (PSI 1-6); higher = more stable; settings: c terminus: native;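 further: lentivirally expressed fusions sorted by FACS into six bins by GFP to DsRed ratio, PSI derived from sequencing read proportions per bin multiplied by bin number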
Simply state the number, no unit and no words.

IN: Requested field: protein stability index. Item: C23H
OUT: 5.02

IN: Find the recorded protein stability index belonging to V2S and report it.
OUT: 2.67

IN: Give the measured protein stability index of P21G .
OUT: 4.95

IN: What value of protein stability index has been reported for the following variant? P19I
OUT: 3.09

IN: Please report the recorded protein stability index for E9C .
OUT: 1.02

IN: Please give the measured protein stability index for this variant: G14F
OUT: 1.61

IN: Requested read-out: protein stability index. Entry: S16I
OUT: 1.59

IN: Record request: protein stability index value, item G12S
OUT: 1.87

IN: # protein stability index lookup, item G12D
OUT: 2.52

IN: Look up protein stability index: P21K
OUT: 3.92

IN: Look up protein stability index: Q18S
OUT: 2.36

IN: What does the data say about its protein stability index? Entry: P19A
OUT: 1.71

IN: Requested read-out: protein stability index. Entry: E15H
OUT: 1.71

IN: I have this variant here, L7F , and I need its recorded protein stability index.
OUT: 2.35

IN: Can you look up the measured protein stability index of S16T for me?
OUT: 1.92

IN: Data request, read-out protein stability index, for L7H
OUT: 1.63

IN: Which protein stability index value is on record for G14L ?
OUT: 2

IN: Quick one: protein stability index of P19D ?
OUT: 4.84

IN: Fill blank: measured protein stability index of the variant L7A is ____.
OUT: 2.32

IN: Quick one: protein stability index for G17I ?
OUT: 2.46

IN: Please look up its protein stability index: E15S
OUT: 2.68

IN: # input variant: M11F ; wanted: its protein stability index
OUT: 1.49
